- testedTarget: α1A-ARs (Homo sapiens)
- methodNotes: Calcium flux assay (Calcium 6 dye) in cells expressing an α1-AR
- Assay type: cell-based
- experimentalSetup: α1A-AR calcium flux; relative to full agonist epinephrine; mean of at least three experiments; read-out: Average Emax (% epi)
Each entry below lists one item and its recorded Emax value.

structurestring=Cc1cc(Cl)cc2c(N3CCCC3)nn(CC3=NCCN3)c12 assayreadout=Emax assayresult="21 to 60%"
structurestring=Cc1cc(C(F)(F)F)cc2c(Cl)nn(CC3=NCCN3)c12 assayreadout=Emax assayresult="> 61%"

// query Emax value for entry Clc1cccc2c(-c3ccccc3)nn(CC3=NCCN3)c12
21 to 60%

// query Emax value for entry Clc1cccc2c(-c3ccncc3)nn(CC3=NCCN3)c12
21 to 60%

// query Emax value for entry CC(F)(F)c1cc(Cl)cc2c(Cl)nn(CC3=NCCN3)c12
> 61%

// query Emax value for entry Cc1cc(Cl)cc2c(N3CCCCC3)nn(CC3=NCCN3)c12
< 20%

// query Emax value for entry Clc1nn(CC2=NCCN2)c2c(N3CCCCC3)cccc12
21 to 60%

====

- testedTarget: α1A-ARs (Homo sapiens, UniProt P35348)
- Sequence (P35348 whole entry): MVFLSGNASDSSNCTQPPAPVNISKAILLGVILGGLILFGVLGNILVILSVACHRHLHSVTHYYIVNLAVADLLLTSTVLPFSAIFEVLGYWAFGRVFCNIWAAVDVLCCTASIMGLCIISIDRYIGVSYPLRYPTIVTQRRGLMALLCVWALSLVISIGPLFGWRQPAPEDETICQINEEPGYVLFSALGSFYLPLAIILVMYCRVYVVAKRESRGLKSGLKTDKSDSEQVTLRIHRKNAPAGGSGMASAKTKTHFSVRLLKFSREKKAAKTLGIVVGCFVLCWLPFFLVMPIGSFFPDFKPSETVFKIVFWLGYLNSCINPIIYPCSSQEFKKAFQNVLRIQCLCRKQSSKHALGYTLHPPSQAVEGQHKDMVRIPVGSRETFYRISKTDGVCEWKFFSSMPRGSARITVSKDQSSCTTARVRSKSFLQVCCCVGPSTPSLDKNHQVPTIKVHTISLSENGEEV
- methodNotes: Calcium flux assay (Calcium 6 dye) in cells expressing an α1-AR
- Assay type: cell-based
- experimentalSetup: read-out: Average Emax (% epi)
Each entry below lists one item and its recorded Emax value.

Here is how some molecules turned out for Emax.
structurestring=CC(C)Oc1cccc2c(Cl)nn(CC3=NCCN3)c12 assayreadout=Emax assayresult="21 to 60%"
structurestring=Clc1cccc2c1c(Cl)nn2CC1=NCCN1 assayreadout=Emax assayresult="< 20%"
structurestring=CCc1cccc2c(Cl)nn(CC3=NCCN3)c12 assayreadout=Emax assayresult="> 61%"
structurestring=Clc1cccc2ccn(CC3=NCCN3)c12 assayreadout=Emax assayresult="21 to 60%"
structurestring=Clc1ccc2c(Cl)nn(CC3=NCCN3)c2c1 assayreadout=Emax assayresult="> 61%"
structurestring=Cc1cn(CC2=NCCN2)c2c(Cl)cccc12 assayreadout=Emax assayresult="> 61%"
structurestring=CC(C)(C)c1nn(CC2=NCCN2)c2c(Cl)cccc12 assayreadout=Emax assayresult="< 20%"
structurestring=Cc1cn(CC2=NCCN2)c2c(Cl)ccc(C(C)C)c12 assayreadout=Emax assayresult="> 61%"

// query Emax value for entry Fc1cc(F)c2c(c1)c(C1CC1)cn2CC1=NCCN1
> 61%

// query Emax value for entry Cc1cc2cccc(Cl)c2n1CC1=NCCN1
< 20%

// query Emax value for entry CC(F)(F)c1cccc2c(Cl)nn(CC3=NCCN3)c12
21 to 60%

// query Emax value for entry Cc1ccnc2c(Cl)nn(CC3=NCCN3)c12
> 61%

// query Emax value for entry Fc1ccc2c(Cl)nn(CC3=NCCN3)c2c1Cl
> 61%

// query Emax value for entry Fc1cccc2c(Cl)nn(CC3=NCCN3)c12
21 to 60%

// query Emax value for entry Cc1cc2c(C(C)C)ccc(Cl)c2n1CC1=NCCN1
> 61%

// query Emax value for entry FC(F)(F)c1cccc2c(Cl)nn(CC3=NCCN3)c12
> 61%

// query Emax value for entry FC(F)(F)c1nn(CC2=NCCN2)c2c(Cl)cccc12
21 to 60%

====

- testedTarget: α1A-ARs (Homo sapiens, UniProt P35348)
- methodNotes: Calcium flux assay (Calcium 6 dye) in cells expressing an α1-AR
- Format: cell-based
- experimentalSetup: read-out: Average Emax (% epi)
assayReadout: Emax

Here is how some compounds turned out for Emax.
compound="Cc1cc(F)cc2c(Cl)nn(CC3=NCCN3)c12 [Compound 50]" assayreadout=Emax assayresult="< 20%"
compound="Cc1cc(Cl)cc2c(Cl)nn(CC3=NCCN3)c12 [Compound 46]" assayreadout=Emax assayresult="> 61%"
compound="Clc1ccc2c(c1)c(Cl)nn2CC1=NCCN1 [Compound 31]" assayreadout=Emax assayresult="21 to 60%"

// query Emax value for entry Clc1cccc2c(C3CC3)cn(CC3=NCCN3)c12 [Compound 3]
21 to 60%

// query Emax value for entry FC(F)c1cccc2c(Cl)nn(CC3=NCCN3)c12 [Compound 43]
< 20%

// query Emax value for entry CC(C)c1cccc2c(Cl)nn(CC3=NCCN3)c12 [Compound 47]
> 61%

// query Emax value for entry N#Cc1cn(CC2=NCCN2)c2c(Cl)cccc12 [Compound 18]
> 61%

// query Emax value for entry COc1ccc(C(C)C)c2ccn(CC3=NCCN3)c12 [Compound 7]
> 61%

// query Emax value for entry Fc1cc(Cl)c2c(c1)c(Cl)nn2CC1=NCCN1 [Compound 23]
> 61%

// query Emax value for entry Cc1cccc2c(C(C)(F)F)nn(CC3=NCCN3)c12 [Compound 62]
> 61%
